assay: Measurement of log P values by HPLC on reversed phase columns (EEC directive 79/831 Annex V.A8; methods [a] pH 2.3, [b] pH 2.7, [c] pH 7.8); format: physicochemical; conditions: method [b]: LC-MS at pH 2.7, 0.1% formic acid in water / acetonitrile
Assay metric: log P

Consider COC(c1ccc(Cl)cc1)C(C)NC(=O)c1ccccc1I (centres unmarked) [Compound 137] . Its measured log P is 3.44^[b]

The compound listed as COC(c1ccc(Cl)cc1Cl)C1(NC(=O)c2cc(C)nn2C)CC1 (centres unmarked) [compound 125] has a reported log P of 3.05^[b]

Measured log P, CCOC(c1ccc(Cl)cc1Cl)C(C)NC(=O)c1cccnc1 (centres unmarked) [Compound 206] : 2.89^[b]

According to the records, this compound COC(c1ccc(Cl)cc1Cl)C(C)N(C(=O)C1=C(C)OCCS1)C1CC1 (centres unmarked) [Compound 172] displays log P of 4.30^[b]

Measured log P of COC(c1ccc(Cl)cc1Cl)C(C)(C)N(C)C(=O)c1ccccc1C(F)(F)F (centres unmarked) [Compound 182] : 5.42^[b]

// sample COC(c1ccc(Cl)cc1Cl)C1(NC(=O)c2ccccc2Cl)CC1 (centres unmarked) [Compound 154] , its log P was 3.76^[b]

// log P lookup, compound = COC(c1ccccc1Cl)C(C)NC(=O)c1cccnc1 (centres unmarked) [Compound 207] , result: 1.94^[b]

So for COC(c1ccc(Cl)cc1Cl)C1(NC(=O)c2c(F)cccc2F)CC1 (centres unmarked) [Compound 150] , the logged log P turned out to be 3.57^[b]

---

Test: Measurement of log P values by HPLC on reversed phase columns (EEC directive 79/831 Annex V.A8; methods [a] pH 2.3, [b] pH 2.7, [c] pH 7.8)
Assay type: physicochemical
Settings: method [b]: LC-MS at pH 2.7, 0.1% formic acid in water / acetonitrile
Experimental: Measurement of log P-values: Measurement of log P values was performed according EEC directive 79/831 Annex V.A8 by HPLC (High Performance Liquid Chromatography) on reversed phase columns with the following methods: ^[a] Measurement was done at pH 2.3 with 0.1% phosphoric acid and acetonitrile as eluent with a linear gradient from 10% acetonitrile to 95% acetonitrile. […]
Assay metric: log P

Lab book: log P of COC(c1ccc(Cl)cc1Cl)C(C)NC(=O)c1c(C)c(C)nn1C(F)F (stereo not drawn) [Compound 116] noted as 3.97^[b]

Entry COC(c1ccc(Cl)cc1)C(C)NC(=O)c1ccccc1C(F)F (stereo not drawn) [Compound 136] ; log P = 3.46^[b]

Lab book: log P of COC(c1ccc(Cl)cc1Cl)C1(NC(=O)c2ccnn2C(F)F)CC1 (stereo not drawn) [compound 121] noted as 3.46^[b]

Data point: COC(c1ccc(Cl)cc1)C(C)NC(=O)c1c(F)cccc1C(F)(F)F (stereo not drawn) [Compound 134] ; log P = 3.65^[b]

Kindly note the recorded log P for COC(c1ccc(Cl)cc1)C(C)NC(=O)c1cccnc1Cl (stereo not drawn) [Compound 135] , which is 2.65^[b]

Summary for this molecule, COC(c1ccccc1Cl)C(C)NC(=O)c1cccnc1C(F)(F)F (stereo not drawn) [Compound 209] : log P is 3.27^[b]

# log P (molecule: COC(c1ccc(Cl)cc1Cl)C(C)N(C(=O)c1cccnc1C(F)(F)F)C1CC1 (stereo not drawn) [Compound 173] ) is 4.44^[b]

Reported log P of COC(CNC(=O)c1cccnc1C(F)(F)F)c1cc(Cl)cc(Cl)c1 (stereo not drawn) [Compound 119] : 3.19^[b]

Lab note: measured log P of COC(c1ccccc1Cl)C(C)NC(=O)c1ccccc1C(F)(F)F (stereo not drawn) [Compound 145] was 3.45^[b]

The value of log P measured for the molecule COC(c1ccc(Cl)cc1Cl)C1(NC(=O)c2ccccc2F)CC1 (stereo not drawn) [Compound 155] turned out to be 3.78^[b]

Just so you know, measured log P for CCOC(c1ccc(Cl)cc1Cl)C(C)NC(=O)c1ccsc1I (stereo not drawn) [Compound 205] came out at 4.63^[b]

Entry under test: CCOC(c1ccc(Cl)cc1Cl)C(C)NC(=O)c1ccccc1Cl (stereo not drawn) [Compound 201] . Its log P was 4.35^[b]

The value of log P measured for the molecule COC(c1ccc(F)cc1)C(C)NC(=O)c1c(F)cccc1F (stereo not drawn) [Compound 185] turned out to be 2.80^[b]

Quick note, log P for CCOC(c1ccc(Cl)cc1Cl)C(C)NC(=O)c1ccccc1Br (stereo not drawn) [Compound 200] landed at 4.43^[b]

The molecule identified as COC(c1ccc(Cl)cc1Cl)C(C)N(C(=O)c1cccnc1C(F)F)C1CC1 (stereo not drawn) [Compound 171] registered its log P at 3.92^[b]

Briefly, log P measured for COC(c1ccccc1Cl)C(C)NC(=O)c1nccnc1C(F)(F)F (stereo not drawn) [Compound 208] : 3.11^[b]

Entry COC(c1ccccc1Cl)C(C)NC(=O)c1ccccc1[N+](=O)[O-] (stereo not drawn) [Compound 138] — recorded log P = 2.82^[b]

Note to self: log P recorded for COC(c1ccccc1Cl)C(C)NC(=O)c1c(F)cccc1F (stereo not drawn) [Compound 144] was 3.11^[b]

Sure, the documented log P for COC(c1ccc(F)cc1)C(C)NC(=O)c1ccccc1Cl (stereo not drawn) [Compound 191] is 3.02^[b]

The molecule listed as COC(c1ccc(Cl)cc1Cl)C1(NC(=O)c2c(F)cccc2C(F)(F)F)CC1 (stereo not drawn) [Compound 149] has a reported log P of 4.00^[b]

Lab book: log P of COC(c1ccc(F)cc1)C(C)NC(=O)c1c(F)cccc1C(F)(F)F (stereo not drawn) [Compound 189] noted as 3.24^[b]

Hey, just so you know, these numbers are from patent US20160100579A1.
